The measurements presented in this section are drawn from ChEMBL document CHEMBL1201862.

# Test system: EKVX
# TEST NAME: NCI tumour cell line growth inhibition, 48 h
Activity calls are given as the source filed them. Rule as the data show it: active = GI50 up to about 1.1 µM and inactive = higher.
Classes used: T (active), F (inactive)

| COMPOUND | DISCRETE LABEL |
| --- | --- |
| CCN(CC)C(=O)C1=C(C)NC(C)=C(C(=O)N(CC)CC)C1 | F |
| COc1nc(C)nc2sc3c(c12)CCCC3 | F |
| O=S(=O)(/C=C/c1ccc(Cl)cc1Cl)Cc1ccccc1CS(=O)(=O)/C=C/c1ccc(Cl)cc1Cl | F |
| COC(=O)C12OCC34C(CC5C(C)C6=CC(=O)OC6=CC5(C)C3C(O)C1O)OC(=O)C(O)C24 (stereo not given) | T |
| NC(CCOCCP(=O)(O)CCOCCC(N)C(=O)O)C(=O)O (stereo not given) | F |

###

# Test system: NCI-H460
# TEST NAME: NCI tumour cell line growth inhibition, 48 h
Calls of active or inactive are those of the source. No stated cut-off is given here; in the data, active = GI50 up to about 1.1 µM and inactive = higher.
Measured GI50, listed per entry for reference.

| MOLECULE | GI50 |
| --- | --- |
| Cc1nn(-c2ccccc2)c2nc(S)cnc12 | > 100 µM (inactive) |
| O=C(O)/C(Cl)=C(/Cl)C(=O)Nc1cccc(Cl)c1 | > 87.9 µM (inactive) |
| CC1(c2cccc(C(F)(F)F)c2)CC(c2cccc(C(F)(F)F)c2)=C(C#N)C(=C(C#N)C#N)N1 (stereo unspecified) | 19.3 µM (inactive) |
| CC1(c2ccc(F)cc2)CC(c2ccc(F)cc2)=C(C#N)C(=C(C#N)C#N)N1 (stereo unspecified) | 18 µM (inactive) |
| CCOC(=O)C1Oc2ccc([N+](=O)[O-])cc2C1(C)O (stereo unspecified) | > 100 µM (inactive) |
| COc1ccc2cc3[n+](cc2c1OC)CCc1cc2c(cc1-3)OCO2 [BERBERINE CHLORIDE] | 12.2 µM (inactive) |
| NCCCCNCCCN1CC1 | 5.5 µM (inactive) |
| O=C(O)C[C@@H](Cl)[C@H](NC(=O)OCc1ccccc1)C(=O)O | > 100 µM (inactive) |
| CN(C)CCCN1c2ccccc2Sc2ccc3ccccc3c21 | 2.79 µM (inactive) |
| CN(C)c1ccc(/C=C(\NC(=O)c2ccccc2)C(=O)NC(CCC(=O)O)C(=O)O)cc1 (stereo unspecified) | > 100 µM (inactive) |
| O=C(ON=c1c2ccccc2ccc2ccccc12)c1ccccc1 | 43.2 µM (inactive) |
| COc1ccc(N2C(=O)c3c(c4[nH]c5ccccc5c4c4ccc(C(C)(C)C)cc34)C2=O)cc1 | 40.4 µM (inactive) |
| CNC1C(=O)C(C)C(O)(C(CC(C)C(O)/C=C/C=C/CNC(=O)C(C)(C)C(O)\C(C)=C/C=C\C=C\Cc2cnc(C)o2)OC)C12C(=O)OC2C.CNC1C(=O)C(C)C(O)(C(CC(C)C(O)/C=C/C=C/CNC(=O)C(C)(C)C(O)\C(C)=C/C=C\C=C\Cc2cnc(C)o2)OC)C12C(=O)OC2COC (stereo unspecified) | 15.2 µM (inactive) |
| C[n+]1c2ccc(Cl)cc2nc2cc(-c3ccccc3)ccc21 | 14.9 µM (inactive) |
| COC(=O)N1CC(=O)C(C(=O)NC23CC4CC(CC(C4)C2)C3)C1 (stereo unspecified) | 78.7 µM (inactive) |
| CC(=O)/C(=C/NC(=S)c1cccnc1)C(=O)Nc1ccccc1C | > 100 µM (inactive) |
| Cn1c2cn[nH]c(=O)c2c2ccc3ccccc3c21 | 20 µM (inactive) |
| CCOC(=O)CCC(NC(=O)c1ccc(Oc2nc3ccc(C(F)(F)F)cc3nc2-c2ccccc2)cc1)C(=O)OCC (stereo unspecified) | 47.1 µM (inactive) |
| CC(C)C(=O)N1C(=O)O[C@@H](c2ccccc2)[C@H]1C | > 100 µM (inactive) |
| O=C(NC(=O)c1c(F)cccc1F)Nc1cccc(Oc2ncc(Cl)cn2)c1 | 4.51 µM (inactive) |
| CC(=O)NC1C(CO)O[C@@H]2OC(C)(C)O[C@H]12 (stereo partly specified) | > 100 µM (inactive) |

###

# Test system: LXFL 529
# TEST NAME: NCI tumour cell line growth inhibition, 48 h
The source made the active and inactive calls. No stated cut-off is given here; in the data, active = GI50 up to about 1.1 µM and inactive = higher.

| MOLECULE | GI50 |
| --- | --- |
| Cc1ccc(S(=O)(=O)NNS(C)(=O)=O)cc1 | > 100 µM (inactive) |
| Cc1nc2ccccc2c(=O)n1NC(=S)Nc1cccc(Cl)c1 | > 100 µM (inactive) |
| COC(=O)C(C(=O)C(=O)Nc1cccc(O)c1)c1nc2ccc(Cl)cc2nc1O (centres undefined) | > 100 µM (inactive) |
| Cc1noc(C)c1C1=CCCCc2ccccc21 | 85.5 µM (inactive) |
| O=C(COc1ccccc1)NS(=O)(=O)c1ccccc1 | > 100 µM (inactive) |
| COc1ccc(CC2NCCc3cc(OC)c(OC)cc32)cc1Br (centres undefined) | 26.9 µM (inactive) |
| CCCCCC1CC=CC(NC(=O)OCc2ccccc2)C1/C=C/CCCC1OCCO1 (centres undefined) | 40.6 µM (inactive) |
| CCOC(=O)c1nc2ccc(OC)cc2c2c1Cc1ccccc1-2 | > 100 µM (inactive) |
| CC(C)C(=O)N1C(=O)O[C@@H](c2ccccc2)[C@H]1C | > 100 µM (inactive) |
| O=C(O)/C(Cl)=C(/Cl)C(=O)Nc1cccc(Cl)c1 | 15.4 µM (inactive) |
| N#CC12Cc3ccc4c(c3-c3cccc(c31)CCN2C(=O)c1ccccc1)OCO4 (centres undefined) | > 100 µM (inactive) |
| OCC1C2C=CC(O2)[C@H]1CO (some centres undefined) | > 100 µM (inactive) |
| OCC(O)C(OC1OC(CO)C(O)C(O)C1O)c1nn(-c2ccc(Cl)cc2)c2nc3cc(Cl)c(Cl)cc3nc12 (centres undefined) | > 100 µM (inactive) |
| O=C(NC(=O)c1c(F)cccc1F)Nc1cccc(Oc2ncc(Cl)cn2)c1 | > 91 µM (inactive) |
| Cc1cccc(-c2nnc(S)[nH]2)c1 | > 100 µM (inactive) |
| C[C@H](C(=O)O)C(=O)NC(=O)N(Cc1ccccc1)N=O | > 100 µM (inactive) |
| O=CC1=CCC2c3[nH]c4ccccc4c3CCN2C1 (centres undefined) | 55.7 µM (inactive) |
| C/C(=N\NC(=O)c1ccccc1O)C1=CNc2ccccc2S1 | 0.875 µM (active) |
| COc1ccc(C(=O)C(c2ccc(OC)cc2)C2OC(=O)C(Cl)=C2Cl)cc1 (centres undefined) | > 100 µM (inactive) |
| COC(=O)C(=O)C(C(=O)Nc1cccc(C)c1C)C1Sc2ccccc2NC1=O (centres undefined) | > 25 µM (inactive) |
| COC(=O)CC(C(C(C)=O)C(=O)OCc1ccccc1)N1C(=O)OCC1c1ccccc1 (centres undefined) | 83.2 µM (inactive) |
| C=CCOC1=C2CC[C@H](O)[C@@]2(C)CCC1=O | > 100 µM (inactive) |
| CCOC(=O)C(=O)C1C(=O)Nc2ccccc21 (centres undefined) | > 100 µM (inactive) |
| CCOC(=O)C12CCCC1(O)N(NC(=O)c1cccc(Cl)c1)C(C)=C2C(=O)OC (centres undefined) | > 100 µM (inactive) |
| C=CC/C=C/C/C=C/CCCCCCCc1cccc(O)c1C(=O)O | 36.1 µM (inactive) |
| [N-]=[N+]=NC1C2CC3CC(C2)CC1C3 (centres undefined) | > 100 µM (inactive) |
| Cc1ccccc1C(=O)C1CCCCC1O (centres undefined) | > 100 µM (inactive) |
| Nc1ccc(Sc2c3ccccc3nc3ccccc23)cc1 | 7.96 µM (inactive) |
| COC(=O)C1CCC2(C)[C@H](CCC3O[C@]32C)[C@@]1(C)CC(=O)c1ccoc1 (some centres undefined) | 40.6 µM (inactive) |

###

# System: PC-3
# TEST NAME: NCI tumour cell line growth inhibition, 48 h
Activity calls are given as the source filed them. Cut-off read from the data, not from the text of the source: active = GI50 up to about 1.1 µM and inactive = higher.
Classes used: Y = active, N = inactive

| COMPOUND | DISCRETE LABEL |
| --- | --- |
| CCCCCc1cc2cc3c(c(O)c2c(=O)[nH]1)C1(CC3)C(=O)c2c(O)c3c(c(O)c2C1=O)C(=O)C(OC)=CC3=O (stereo not drawn) | Y |
| N#CC1C(=O)SC2c3ccccc3C(=O)c3ccccc3C12 (stereo not drawn) | N |
| CCOC(=O)CCCSCCCC(=O)CCCSCCCC(=O)OCC | N |

###

# Test system: A549
# TEST NAME: NCI tumour cell line growth inhibition, 48 h
The source made the active and inactive calls. Cut-off read from the data, not from the text of the source: active = GI50 up to about 1.1 µM and inactive = higher.
Classes used: T = active, F = inactive

| COMPOUND | DISCRETE LABEL |
| --- | --- |
| O=C(ON=c1c2ccccc2ccc2ccccc12)c1ccccc1 | F |
| COC(=O)C1=C(C)NC2=C(C(=O)c3ccccc32)C1c1cn(-c2ccccc2)nc1-c1ccccc1 (configuration not stated) | F |
| O=C(c1ccccc1)c1ccc2[nH]c(-c3c(Cl)c(Cl)c(Cl)c(Cl)c3C(=O)N/N=C/c3ccc(Cl)cc3)nc2c1 | F |
| C=CC/C=C/C/C=C/CCCCCCCc1cccc(O)c1C(=O)O | F |
| C=C[C@@H](C)[C@H](NS(=O)(=O)c1ccc(C)cc1)C(=O)OCC | F |
| C=C1C(=O)O[C@H]2C1C[C@H](O)/C(C)=C/CC[C@@]1(C)O[C@H]21 (some centres not stated) | F |
| CCN(CC)CCOC(=O)Cc1cccc2c(=O)cc(-c3ccccc3)oc12 | F |
| CCOc1ccccc1NC(=O)CCc1n[nH]c(=S)o1 | F |
| O=C(c1ccc(O)c([N+](=O)[O-])c1)c1ccc(O)c([N+](=O)[O-])c1 | F |
| CCCCCC1CC=CC(NC(=O)OCc2ccccc2)C1/C=C/CCCC1OCCO1 (configuration not stated) | F |
| O=C1c2ccccc2C(=O)N1CCCCNOCCCN1C(=O)c2ccccc2C1=O | F |
| O=C1/C(=C/c2ccc([N+](=O)[O-])cc2)Oc2cc(O)ccc21 | F |
| COc1cc2cc3c4c(cc(OC)c(OC)c4c2cc1OC)CCN3 | F |
| CCCCCCCCCCCCCCCCOP(=O)(O)OCC(N)C(=O)O (configuration not stated) | F |
| O=S(O)CCCCSSCCCCS(=O)(=O)S | F |
| CC1(C)O[C@@H]2COC(=O)[C@@H]2O1 | F |
| CSc1nn(C)cc2nc(C)nc1-2 | F |
| CCCCCCC1=NOC(C(c2cc[nH]c2)N(C)[C@H](C(=O)OC)C(C)C)C1 (some centres not stated) | F |
| CCNC(=O)Nc1cccc(C)n1 | F |
| CCOc1cc2oc(C)cc(=O)c2c(OC)c1/C=N/c1ccc(Cn2c(C)nc3ccccc32)cc1 | F |
| CC(C)(C)C(=O)OC(N)/C=C/c1ccccc1 (configuration not stated) | F |
| COC(=O)C12OCC34C(CC5C(C)C6=CC(=O)OC6=CC5(C)C3C(O)C1O)OC(=O)C(O)C24 (configuration not stated) | T |
